# System: Enterococcus faecalis
# Method summary: Antibacterial activity against Enterococcus faecalis OG1RF by broth microdilution method
# Type: functional
Reported endpoint: MIC

Task: Reported MIC for O=C(C1=C(O)C(=O)N(c2nnc(SCc3ccccc3Cl)s2)C1c1cccc(O)c1)c1cc2ccccc2o1 (configuration not stated) : what is it?
Output: > 100 µM

Task: Reported MIC for O=C(C1=C(O)C(=O)N(c2nnc(SCc3ccccc3Cl)s2)C1c1ccc(O)cc1)c1cc2ccccc2o1 (configuration not stated) : what is it?
Output: > 100 µM

Task: Reported MIC for COc1cc(C2C(C(=O)c3cc4ccccc4o3)=C(O)C(=O)N2c2nnc(SCc3ccccc3)s2)ccc1O (configuration not stated) : what is it?
Output: > 100 µM

====

# Tested on: Enterococcus faecalis
# Method summary: Antibacterial activity against Enterococcus faecalis OG1RF by broth microdilution method
# Type: functional
MIC listing for selected compounds.

Some entries whose results are on file:
{"Compound": "O=C(C1=C(O)C(=O)N(c2nnc(SCc3cccc(Cl)c3)s2)C1c1ccccc1O)c1cc2ccccc2o1 (centres undefined)", "Target entity": "Enterococcus faecalis", "Data value": "25 µM"}
{"Compound": "O=C(C1=C(O)C(=O)N(c2nnc(SCc3ccccc3Cl)s2)C1c1ccccc1)c1cc2ccccc2o1 (centres undefined)", "Target entity": "Enterococcus faecalis", "Data value": "> 100 µM"}
{"Compound": "O=C(C1=C(O)C(=O)N(c2nnc(SCc3ccccc3Cl)s2)C1c1ccc(O)c(Br)c1)c1cc2ccccc2o1 (centres undefined)", "Target entity": "Enterococcus faecalis", "Data value": "> 100 µM"}
{"Compound": "O=C(C1=C(O)C(=O)N(c2nnc(SCc3ccccc3Cl)s2)C1c1ccccc1O)c1cc2ccccc2s1 (centres undefined)", "Target entity": "Enterococcus faecalis", "Data value": "> 100 µM"}

Task: Reported MIC for O=C(C1=C(O)C(=O)N(c2nnc(SCc3ccccc3)s2)C1c1ccccc1O)c1ccc(C(F)(F)F)cc1 (centres undefined) : what is it?
Output: > 100 µM

Task: Reported MIC for O=C(O)COc1ccc(C2C(C(=O)c3cc4ccccc4o3)=C(O)C(=O)N2c2nnc(SCc3ccccc3Cl)s2)cc1 (centres undefined) : what is it?
Output: > 100 µM

====

MIC listing for selected molecules.
# System: Enterococcus faecalis
# Method summary: Antibacterial activity against Enterococcus faecalis OG1RF by broth microdilution method
# Assay type: functional

{"Molecule": "COc1cc(C2C(C(=O)c3cc4ccccc4o3)=C(O)C(=O)N2c2nnc(SCc3ccccc3Cl)s2)ccc1O (stereo not drawn)", "Data value": "> 100 µM"}
{"Molecule": "CCCCCCCCCC(=O)N[C@@H](Cc1c[nH]c2ccccc12)C(=O)N[C@H](CC(N)=O)C(=O)N[C@@H](CC(=O)O)C(=O)N[C@@H]1C(=O)NCC(=O)N[C@@H](CCCN)C(=O)N[C@@H](CC(=O)O)C(=O)N[C@H](C)C(=O)N[C@@H](CC(=O)O)C(=O)NCC(=O)N[C@H](CO)C(=O)N[C@@H]([C@H](C)CC(=O)O)C(=O)N[C@@H](CC(=O)c2ccccc2N)C(=O)O[C@@H]1C", "Data value": "2 µM"}
{"Molecule": "O=C(C1=C(O)C(=O)N(c2nnc(SCc3ccccc3)s2)C1c1ccccc1O)c1ccc(F)cc1 (stereo not drawn)", "Data value": "> 100 µM"}
{"Molecule": "COC(=O)COc1ccc(C2C(C(=O)c3cc4ccccc4o3)=C(O)C(=O)N2c2nnc(SCc3ccccc3Cl)s2)cc1 (stereo not drawn)", "Data value": "> 100 µM"}
{"Molecule": "O=C(C1=C(O)C(=O)N(c2nnc(SCc3ccccc3)s2)C1c1ccc(O)c(O)c1)c1cc2ccccc2o1 (stereo not drawn)", "Data value": "> 100 µM"}
{"Molecule": "O=C(C1=C(O)C(=O)N(c2nnc(SCc3ccccc3)s2)C1c1ccccc1O)c1cc2ccccc2s1 (stereo not drawn)", "Data value": "> 100 µM"}
{"Molecule": "O=C(C1=C(O)C(=O)N(c2nnc(SCc3ccc(Cl)cc3)s2)C1c1ccccc1O)c1cc2ccccc2o1 (stereo not drawn)", "Data value": "50 µM"}

From here, focus on the item given below.
Task: Reported MIC for COc1ccc(O)c(C2C(C(=O)c3cc4ccccc4o3)=C(O)C(=O)N2c2nnc(SCc3ccccc3Cl)s2)c1 (stereo not drawn) : what is it?
Output: 100 µM
